# Tested on: LOX IMVI
# assayProtocol: NCI tumour cell line growth inhibition, 48 h
Activity calls are given as the source filed them. Rule as the data show it: active = GI50 up to about 1.1 µM and inactive = higher.
parameterMeasured: GI50

Would you please look over these solved cases?
[Q] Need GI50 of COC(CC1(OC)OC(=O)C=C1N)OC (stereo unspecified) , thanks.
[A] > 100 µM (inactive)

[Q] Need GI50 of Fc1ccc2nc3n(c2c1)C(c1c(Cl)cccc1Cl)SC3 (stereo unspecified) , thanks.
[A] > 100 µM (inactive)

[Q] Need GI50 of `COc1ccc(CNNC(=O)c2cc[n+]([BH2-]C#N)cc2)cc1OC` , thanks.
[A] > 100 µM (inactive)

[Q] Need GI50 of Nc1ncnc2c1ncn2C1CCC(COS(N)(=O)=O)C1 (stereo unspecified) , thanks.
[A] 37 µM (inactive)

[Q] Need GI50 of `O=S(=O)(c1ccccc1)[C@@H]1[C@H]2C=C[C@](CS)(O2)[C@H]1S(=O)(=O)c1ccccc1` , thanks.
[A] 44.6 µM (inactive)

[Q] Need GI50 of CCCCCCCCC/C=C1\CC(CO)(COC(=O)C2CCCCC2)OC1=O (stereo unspecified) , thanks.
[A] 11.8 µM (inactive)

Could I get GI50 for every one of these entries?
1. Cn1c(=O)c(C(=O)NC(=O)NCCCCCOC(=O)CCCCCCCCCCC(=O)OCCCCCNC(=O)NC(=O)c2cn(Cc3ccccc3)c(=O)n(C)c2=O)cn(Cc2ccccc2)c1=O
2. COC(=O)[C@H]1C=C[C@@H](C)n2c(=O)c3ccccc3c(=O)n21
3. CCC(/C=C/c1ccccc1)=N\Nc1ccc(Cl)c(Cl)c1
4. CC(C)(S)C(N)C(=O)O (stereo unspecified)
5. NC(=O)N1N=C2c3ccccc3OC[C@H]2[C@@H]1c1ccccc1

[A]
1: > 100 µM (inactive); 2: > 100 µM (inactive); 3: 22.8 µM (inactive); 4: > 100 µM (inactive); 5: 26.1 µM (inactive)
